- SUBJECT OF TEST: human Edg-1 (S1P1) (Homo sapiens, UniProt P21453)
- Construct: expressed in transfected cells; host or cells: HEK-293
- Sequence (P21453 whole entry): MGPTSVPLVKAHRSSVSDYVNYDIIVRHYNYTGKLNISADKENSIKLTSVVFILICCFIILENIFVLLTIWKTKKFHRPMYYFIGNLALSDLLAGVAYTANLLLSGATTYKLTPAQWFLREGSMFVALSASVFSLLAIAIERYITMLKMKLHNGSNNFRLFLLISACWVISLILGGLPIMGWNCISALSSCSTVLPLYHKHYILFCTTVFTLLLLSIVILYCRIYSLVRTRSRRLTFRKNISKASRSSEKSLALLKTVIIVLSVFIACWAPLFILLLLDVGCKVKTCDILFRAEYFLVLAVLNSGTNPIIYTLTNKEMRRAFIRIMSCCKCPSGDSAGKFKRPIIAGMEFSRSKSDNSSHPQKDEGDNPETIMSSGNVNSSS
- PROTOCOL SUMMARY: S1P1 binding assay: inhibition of [33P]-S1P binding to membrane fraction of HEK-293 cells transferred with the human Edg-1 (S1P1) gene
- CONDITION PARAMETERS: test compound at 10 μM; inhibition of [33P]-S1P binding to the membrane fraction of HEK-293 cells expressing human Edg-1 (S1P1)
Documented inhibition at 10 µM across a set of compounds
Value expressed in %; do not type the unit.

COMPOUND	UNIT INFO	inhibition at 10 µM
CCn1c(Oc2ccc3cc[nH]c3c2)nnc1[C@@H](C)NS(=O)(=O)c1ccc(Cl)c(Cl)c1 [Compound 64]	%	101
CCn1c(Oc2cccc(N(C)C)c2)nnc1[C@@H](C)NS(=O)(=O)c1ccc(Cl)c(Cl)c1 [Compound 28]	%	104
CCn1c(Oc2ccc(F)cc2)nnc1[C@@H](C)NS(=O)(=O)c1cc(Cl)ccc1OC [Compound 254]	%	75.1
CCn1c(Oc2ccc3cc[nH]c3c2)nnc1[C@@H](C)NS(=O)(=O)c1cc(F)c(Br)cc1F [Compound 387]	%	63.5
CCn1c(Oc2ccc3cc[nH]c3c2)nnc1[C@@H](C)NS(=O)(=O)c1ccc(-c2csnn2)s1 [Compound 368]	%	60.5

The value of inhibition at 10 µM measured for the compound CCn1c(Oc2ccc(OC)cc2)nnc1[C@@H](C)NS(=O)(=O)c1ccc2c(Cl)cccc2c1 [Compound 138] turned out to be 99.6

The value of inhibition at 10 µM measured for the compound CCn1c(Oc2ccc3cc[nH]c3c2)nnc1[C@@H](C)NS(=O)(=O)/C=C/c1ccccc1 [Compound 356] turned out to be 95.6

The value of inhibition at 10 µM measured for the compound CCCc1ccc(S(=O)(=O)N[C@H](C)c2nnc(Oc3ccc4cc[nH]c4c3)n2CC)cc1 [Compound 377] turned out to be 73.9

The value of inhibition at 10 µM measured for the compound CCn1c(Oc2ccc(F)cc2)nnc1[C@@H](C)NS(=O)(=O)c1ccc(Br)c(F)c1 [Compound 275] turned out to be 107

The value of inhibition at 10 µM measured for the compound CCn1c(Oc2ccc(Cl)cc2)nnc1[C@@H](C)NS(=O)(=O)c1ccc2ccccc2c1 [Compound 141] turned out to be 105

The value of inhibition at 10 µM measured for the compound CCn1c(Oc2ccc3cc[nH]c3c2)nnc1[C@@H](C)NS(=O)(=O)c1ccc(C)cc1 [Compound 359] turned out to be 95.7

The value of inhibition at 10 µM measured for the compound CCn1c(Oc2ccc(F)cc2)nnc1[C@@H](C)NS(=O)(=O)/C=C/c1ccccc1 [Compound 183] turned out to be 92.8

The value of inhibition at 10 µM measured for the compound CCn1c(Oc2cccc(N3CCN(C(C)C)CC3)c2)nnc1[C@@H](C)NS(=O)(=O)c1ccc(Cl)c(Cl)c1 [Compound 94] turned out to be 106

The value of inhibition at 10 µM measured for the compound CCn1c(Oc2ccc3cc[nH]c3c2)nnc1[C@@H](C)NS(=O)(=O)c1cc(Cl)c(Cl)cc1Cl [Compound 357] turned out to be 106

The value of inhibition at 10 µM measured for the compound CCn1c(Oc2ccc3cc[nH]c3c2)nnc1[C@@H](C)NS(=O)(=O)c1ccccc1C#N [Compound 336] turned out to be 56.8

These measurements were taken from patent US8022091B2.
